Tested on: MDA-MB-486
Format: cell-based
Condition description: Breast cancer; 10^−5 molar; 48 hours; SRB
So basically, if Growth percent MDA-MB-486 comes in under 40% it's label 1, and if it's 40% or more it's label 0.

{"Compound": "CCC(CO)Nc1nc2ccccc2c2c(=O)c3cc(Cl)ccc3sc12 (stereo not shown)", "Class": "label 0"}
{"Compound": "CNc1nc2ccccc2c2c(=O)c3cc(Cl)ccc3sc12", "Class": "label 1"}
{"Compound": "O=c1c2ccc(Cl)cc2sc2c(Cl)nc3ccccc3c12", "Class": "label 0"}
{"Compound": "CN(C)CCNc1nc2ccccc2c2c(=O)c3cc(Cl)ccc3sc12", "Class": "label 1"}
{"Compound": "O=c1c2cc(Cl)ccc2sc2c(N3CCN(Cc4ccccc4)CC3)nc3ccccc3c12", "Class": "label 0"}
{"Compound": "CCNc1nc2ccccc2c2c(=O)c3cc(Cl)ccc3sc12", "Class": "label 1"}
{"Compound": "CCC(CC)Nc1nc2ccccc2c2c(=O)c3cc(Cl)ccc3sc12", "Class": "label 0"}
{"Compound": "NCCNc1nc2ccccc2c2c(=O)c3cc(Cl)ccc3sc12", "Class": "label 1"}
{"Compound": "CC(C)CC(C)Nc1nc2ccccc2c2c(=O)c3cc(Cl)ccc3sc12 (stereo not shown)", "Class": "label 0"}
